The entries below are paired with their reported enrichment ratio.
B1: PhoQ; a variant is named by its letters at X, in order, P23837 (parent)
chain: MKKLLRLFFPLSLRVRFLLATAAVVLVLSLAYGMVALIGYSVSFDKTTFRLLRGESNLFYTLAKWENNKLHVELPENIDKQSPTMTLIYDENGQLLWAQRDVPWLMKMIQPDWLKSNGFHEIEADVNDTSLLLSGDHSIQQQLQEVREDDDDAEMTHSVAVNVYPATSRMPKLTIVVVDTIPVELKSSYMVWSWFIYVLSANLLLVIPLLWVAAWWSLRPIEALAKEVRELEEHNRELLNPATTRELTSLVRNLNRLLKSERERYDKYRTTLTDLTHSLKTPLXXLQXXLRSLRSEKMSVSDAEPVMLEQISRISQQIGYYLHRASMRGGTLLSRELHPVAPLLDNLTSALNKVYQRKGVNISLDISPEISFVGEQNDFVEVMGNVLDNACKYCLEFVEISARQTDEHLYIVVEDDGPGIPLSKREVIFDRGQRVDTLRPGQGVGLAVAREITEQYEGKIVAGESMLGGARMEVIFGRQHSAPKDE

Variants of: B1
Test: enrichment ratio after two sorts for PhoP signalling (ratio (wild type AVST 3.29)); higher = more functional
Setup conditions: with PhoP (E. coli)
Whole data set: some 140,000 sequences, median “enrichment ratio after two sorts for PhoP signalling” near 0, cut for the highest 2% near 11. This excerpt belongs to a sample that is enriched for the highest values.
Outcome measure: enrichment ratio

mutant_label=QSAM outcome_measure="enrichment ratio" result=14.5
mutant_label=ATGN outcome_measure="enrichment ratio" result=3.43
mutant_label=GILT outcome_measure="enrichment ratio" result=3.61
mutant_label=GIGG outcome_measure="enrichment ratio" result="≤ 0.25"
mutant_label=SADI outcome_measure="enrichment ratio" result="≤ 0.25"
mutant_label=NFAS outcome_measure="enrichment ratio" result="≤ 0.25"
mutant_label=TMWQ outcome_measure="enrichment ratio" result="≤ 0.25"
mutant_label=TMQF outcome_measure="enrichment ratio" result=16.1
mutant_label=GISA outcome_measure="enrichment ratio" result=13
mutant_label=GIMT outcome_measure="enrichment ratio" result=12.6
mutant_label=KVLP outcome_measure="enrichment ratio" result="≤ 0.25"
mutant_label=GIHF outcome_measure="enrichment ratio" result="≤ 0.25"
mutant_label=LMLV outcome_measure="enrichment ratio" result="≤ 0.25"
mutant_label=GIMQ outcome_measure="enrichment ratio" result=11.4
mutant_label=NIYP outcome_measure="enrichment ratio" result="≤ 0.25"
mutant_label=GNMT outcome_measure="enrichment ratio" result="≤ 0.25"
mutant_label=TMHP outcome_measure="enrichment ratio" result="≤ 0.25"
mutant_label=MFGN outcome_measure="enrichment ratio" result="≤ 0.25"
mutant_label=GISR outcome_measure="enrichment ratio" result="≤ 0.25"
mutant_label=DMQF outcome_measure="enrichment ratio" result="≤ 0.25"
mutant_label=RVAL outcome_measure="enrichment ratio" result="≤ 0.25"
mutant_label=VNMC outcome_measure="enrichment ratio" result=1.44
